pIC50: −log10 of the molar value.
Record set: pIC50 | 3-hydroxy-3-methylglutaryl-coenzyme A reductase (Rattus norvegicus, UniProt P51639) | literature, multiple sources.
# cutoff 7 applies to pIC50; >= gives fulfilled, < gives not fulfilled

{"compound": "CC(C)[C@@H](O)C(=O)NCCC(=O)NCCNCC(O)CC(O)CC(=O)O (stereo partly specified)", "class": "not fulfilled"}
{"compound": "CSCOc1cc(Cl)cc(Cl)c1/C=C/[C@@H]1C[C@@H](O)CC(=O)O1", "class": "not fulfilled"}
{"compound": "CC(C)c1nc(-c2ccc(F)cc2)c(-c2ccc(F)cc2)n1/C=C/[C@H](O)C[C@H](O)CC(=O)O", "class": "not fulfilled"}
{"compound": "CC(C)c1c(-c2ccc(F)cc2)nc(-c2ccc(F)cc2)n1/C=C/[C@@H](O)C[C@@H](O)CC(=O)O", "class": "fulfilled"}
{"compound": "CC(C)c1c(C(=O)N(C)Cc2ccccc2)nn(-c2ccc(F)cc2)c1CC[C@@H](O)C[C@@H](O)CC(=O)O", "class": "fulfilled"}
{"compound": "CC(C)c1nc(-c2ccc(F)cc2)c(-c2cccc(Cl)c2)n1/C=C/[C@@H](O)C[C@@H](O)CC(=O)O", "class": "fulfilled"}
{"compound": "O=C1C[C@H](O)C[C@@H](/C=C/c2c(Cl)cc(Cl)cc2OCCOc2ccc(Cl)cc2)O1", "class": "not fulfilled"}
{"compound": "O=C1C[C@H](O)C[C@@H](CCc2c(Cl)cc(Cl)cc2OCc2ccccc2)O1 (stereo in doubt; 8a(-))", "class": "not fulfilled"}
{"compound": "CC[C@H](C)C(=O)O[C@H]1CCC=C2C=C[C@H](C)[C@H](/C=C/C(=O)C[C@@H](O)CC(=O)O)[C@H]21", "class": "not fulfilled"}
